Values compiled from PubChem BioAssay (NCI).

# Test system: UO-31 renal
# ASSAY_DETAILS: NCI tumour cell line growth inhibition, 48 h
ASSAY_METRIC: TGI

Sample records with TGI:
INSERT INTO results (molecule, result) VALUES
  ('CCOC(=O)Nc1nc2ccc(Cn3cccc3)cc2[nH]1', '> 100 µM'),
  ('CC(=O)C(=[N+]=[N-])C(=O)NCC#N', '> 10 µM'),
  ('Cn1ccnc1CC(C)(O)c1ccccc1 (centres undefined)', '> 100 µM');

Now consider a different molecule.
// lookup TGI for O=C1OC(CC(=O)c2ccc(Cl)c(Cl)c2)C(Cl)=C1Cl (centres undefined)
> 100 µM

* * *

# Tested on: DU-145 prostate
# ASSAY_DETAILS: NCI tumour cell line growth inhibition, 48 h
ASSAY_METRIC: TGI

INSERT INTO assay_data (molecule, assay_metric, result) VALUES
  ('CN1CCN(CCCN)CC1', 'TGI', '> 100 µM');

Field: TGI. Fill in for each record below.
1. CC(=O)N1C(=O)CC2(N=C(C)CC2=O)c2ccccc21 (stereo unspecified)
2. CCC(Sc1cc(Cl)c(C)cc1S(=O)(=O)Nc1nc(N)nc(N(C)C)n1)C(=O)O (stereo unspecified)

1: > 10 µM; 2: > 10 µM

* * *

Let's go through some recorded GI50 values for MDA-MB-435 together.

Sample records with GI50:
INSERT INTO measurements (compound, result) VALUES
  ('CC(=O)[O-].CC(=O)[O-].[Pt+2].c1cscn1.c1cscn1', '> 100 µM'),
  ('COc1cc(OC)cc(C2CC(=O)Nc3c2c(C)nn3-c2nc3ccccc3[nH]2)c1 (stereo unspecified)', '2.76 µM'),
  ('COC(=O)c1cc2c(cc1Cl)SC(N(N(C)C)S(=O)(=O)c1ccc(Br)s1)=NS2(=O)=O', '23.1 µM'),
  ('CC(C)=CCCC(C)c1ccc(C)c2c1OCN(CC1CCNCC1)C2 (stereo unspecified)', '6.48 µM'),
  ('COc1cc(/C=C/C(=O)CC(=O)/C=C/c2cc(OC)c(OC)c(OC)c2)cc(OC)c1OC', '2.52 µM');

Field: GI50. Fill in for each record below.
1. CC(O)c1cccc(NCc2c3ccccc3c(=O)n3c2oc2ccccc23)c1 (stereo unspecified)
2. Cc1cc(I)cc(CN(C)CCCN2CCSCC2)c1O
3. NOCC(=O)O
4. CO[C@@H]1/C=C\C=C(/C)C(=O)NC2=CC(=O)C(NCCN(C)C)=C(C[C@@H](C)C[C@@H](OC)[C@@H](O)[C@H](C)/C=C(\C)[C@H]1OC(N)=O)C2=O
5. C=C1C(=O)O[C@H]2[C@H]1CC/C(CNC(=O)c1cc3cc(OC)ccc3[nH]1)=C\CC[C@@]1(C)O[C@@H]21

["18.4 µM", "23.2 µM", "> 100 µM", "< 0.0124 µM", "1.73 µM"]

What is its GI50 for MDA-MB-435? Entry: O=c1ccn(C2OC(CO)C(O)C2F)c(=O)[nH]1 (stereo unspecified)
> 1000 µM

* * *

# Test system: CCRF-CEM leukemia
# ASSAY_DETAILS: NCI tumour cell line growth inhibition, 48 h
ASSAY_METRIC: GI50

INSERT INTO results (molecule, result) VALUES
  ('O=c1c2cc(Cl)ccc2oc2ccc(OCCCCCN3CCCCC3)cc12', '3920 nM'),
  ('CC(C)c1ccc(C(=O)Nc2nc3ccc(O)cc3s2)cc1', '318 nM'),
  ('COC1CC(C)C(OC)C2=CC(=O)C=C(NC(=O)/C(C)=C/C=C\C(C)C(OC(N)=O)/C(C)=C\C(C)C1OC)C2=O (stereo not drawn)', '70.6 nM'),
  ('CCOC(=O)C(Cc1c[nH]c2ccc(N)cc12)(NC(C)=O)C(=O)OCC', '656000 nM'),
  ('COc1cc(/C=C/C(=O)CC(=O)/C=C/c2cc(OC)c(OC)c(OC)c2)cc(OC)c1OC', '2580 nM'),
  ('CC(O)c1cccc(NCc2c3ccccc3c(=O)n3c2oc2ccccc23)c1 (stereo not drawn)', '3340 nM'),
  ('O=C1c2ccccc2-c2c1c1ccccc1c(=O)n2CCCNCCCn1ccnc1', '246 nM'),
  ('Cn1c([N+](=O)[O-])cnc1/C=C1\Oc2ccccc2C1=O', '168 nM'),
  ('Cc1ccccc1NC(=O)N/C(N)=N/c1nc(-c2cccc([N+](=O)[O-])c2)cs1', '3000 nM'),
  ('C=C1C(=O)O[C@H]2[C@H]1CC/C(CNC(=O)c1cc3cc(OC)ccc3[nH]1)=C\CC[C@@]1(C)O[C@@H]21', '1970 nM');

Field: GI50. Fill in for each record below.
1. Cc1nc2sc(C(=O)Nc3cccc(Cl)c3C)c(N)c2cc1C(=O)/C=C/c1ccccc1
2. CC(=O)c1c(C)[nH]c(-c2nc3ccc(N4CCN(C)CC4)cc3[nH]2)c1-c1ccc(OCC2CCOCC2)cc1
3. O=[N+]([O-])c1cc(Cl)c(Cl)c([N+](=O)[O-])c1Cl

["176 nM", "654 nM", "236 nM"]
